# key: entry, value: Dose.FC.LYZ.NS (log 2 fold change)
- Test system: ISC-enriched organoids
- RUN DESCRIPTION: Primary screen, 384-well 2.5-D organoid differentiation (ENR+CD, 6 days): basal lysozyme secretion (LYZ.NS)
- Assay type: cell-based, murine
- ASSAY CONDITIONS: Dose 10.00 uM; primary screen, vs plate median

>  <MOLECULE>
Nc1ccc(C(=O)[O-])c(O)c1.[Na+] [Sodium 4-Aminosalicylate]

>  <Dose.FC.LYZ.NS (log 2 fold change)>
0.091

$$$$
>  <MOLECULE>
Cc1nnc(C(=O)NC(C)(C)c2nc(C(=O)NCc3ccc(F)cc3)c(O)c(=O)n2C)o1

>  <Dose.FC.LYZ.NS (log 2 fold change)>
0.042

$$$$
>  <MOLECULE>
N#CSc1cc(SC#N)c(N)nc1N

>  <Dose.FC.LYZ.NS (log 2 fold change)>
−0.194

$$$$
>  <MOLECULE>
CC(C)(C)c1cc(NC(=O)Nc2ccc(-c3cn4c(n3)sc3cc(OCCN5CCOCC5)ccc34)cc2)no1

>  <Dose.FC.LYZ.NS (log 2 fold change)>
−0.173

$$$$
>  <MOLECULE>
O=C(Nc1cc(C(F)(F)F)ccc1N1CCCCC1)c1ccncc1

>  <Dose.FC.LYZ.NS (log 2 fold change)>
0.022

$$$$
>  <MOLECULE>
CNC(=O)c1ccc2cc([C@@]3(O)CCn4cncc43)ccc2c1

>  <Dose.FC.LYZ.NS (log 2 fold change)>
−0.002

$$$$
>  <MOLECULE>
Cc1ccc(S(=O)(=O)Cc2nc(-c3ccc(C(=O)NCc4cccnc4)cc3)oc2C)cc1

>  <Dose.FC.LYZ.NS (log 2 fold change)>
−0.177

$$$$
>  <MOLECULE>
Cl.NC(=O)c1cnc(N[C@@H]2CCCC[C@@H]2N)nc1Nc1cccc(-n2nccn2)c1 [PRT062607 (P505-15, BIIB057) HCl]

>  <Dose.FC.LYZ.NS (log 2 fold change)>
−0.211

$$$$
>  <MOLECULE>
O=C1NC(=O)C(c2ccccc2[N+](=O)[O-])=C1Nc1ccc(O)c(Cl)c1

>  <Dose.FC.LYZ.NS (log 2 fold change)>
−0.016

$$$$
